B1: PDZK1 (parent)
chain: FQAKKIPIVSSLADPLDTPPDSKE

Variants of: B1
Test: protein stability index of a GFP-peptide fusion (GPS, HEK-293T) (PSI 1-6); higher = more stable;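 note: lentivirally expressed fusions sorted by FACS into six bins by GFP to DsRed ratio, PSI derived from sequencing read proportions per bin multiplied by bin number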
Details: c terminus: a fixed tail appended
result type: protein stability index

Consider the worked cases shown below.
>  <variant identifier>
P15H

>  <protein stability index>
3.85

$$$$
>  <variant identifier>
L16Y

>  <protein stability index>
3.47

$$$$

Could you tell me which protein stability index is on file for "T18Y" ?
3.33

Also "P19E" ?
3.35

What do we get for "D21G" ?
2.89

What about this variant? "D17L"
3.28

Then "P15I" ?
3.53

And then "P20F" , what is it?
3.17

Then what about the variant "T18I" ?
3.75

And the next one, "P15G" ?
4.12

Same lookup for "P15W" , please.
2.45

How about "P19I" ?
3.55

Cool, now "P15K"
3.25

# repeat for "L12Y"
3.75

How about "P20E" ?
4.21

"L16E" , same question.
4.07

// next record "S11V"
3.38

Same again, this time with "P15D"
4.1

Try this variant too: "T18A"
3.59

Okay, and "P19R" ?
3.56
